The origin of these recorded values is paper PMC10113271.

biological target: T1, KIX domain of CREB-binding protein (residues 586–672 of mouse CBP) (mouse, UniProt P45481 586-672); experiment: ITC; 600 μM MLL solution titrated into the cell containing 45 µM KIX; 30 °C; 20 mM Tris–acetate pH 7.0, 50 mM NaCl; one-site binding model; conditions: both partners purified
T1 construct: KIX domain, residues 586-672 of mouse CBP; 6xHis-tag and thrombin cleavage site at the N-terminus; source: E. coli BL21(DE3)pLysS, purified (Ni-NTA, gel filtration on Superdex 200 pg)
T1 sequence (P45481 586-672): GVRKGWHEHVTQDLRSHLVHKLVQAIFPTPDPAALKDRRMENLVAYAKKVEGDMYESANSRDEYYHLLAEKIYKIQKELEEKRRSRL
Known pKd of a selection of binders
To interpret pKd, take it as minus log10 of a concentration measured in moles per litre.

Observe how each entry below is paired with its result.
| Binder | Recorded number |
| --- | --- |
| GNILPSDIMDFVLKNFPSMQALGESPESY (MLL TAD, residues 2842-2869 of human MLL, with the substitution; Tyr residue attached at the C-terminus for concentration determination by UV absorption; source: E. coli BL21(DE3), purified (Ni-NTA); not shown: His6, N-terminal, kept) [His-tag–GB1–MLL TAD T2857F] | 5.68 |
| GNILPSDIMDFVLRNWPSMQALGESPESY (MLL TAD, residues 2842-2869 of human MLL, with the substitutions; Tyr residue attached at the C-terminus for concentration determination by UV absorption; also called K2855R/T2857W double mutant; source: E. coli BL21(DE3), purified (Ni-NTA); not shown: His6, N-terminal, kept) [His-tag–GB1–MLL TAD K2855R/T2857W] | 5.98 |
| GNILPSDIMDFVLRNTPSMQALGESPESY (MLL TAD, residues 2842-2869 of human MLL, with the substitution; Tyr residue attached at the C-terminus for concentration determination by UV absorption; One of the four mutants used without His-tag–GB1 in ITC as well as in CD; source: E. coli BL21(DE3), purified (Ni-NTA, thrombin digestion on the column, anion exchange); not shown: His6, N-terminal, cleaved) [MLL TAD peptide K2855R without His-tag–GB1] | 5.82 |
| GNILPSDLMDFVLKNTPSMQALGESPESY (MLL TAD, residues 2842-2869 of human MLL, with the substitution; Tyr residue attached at the C-terminus for concentration determination by UV absorption; One of the four mutants used without His-tag–GB1 in ITC as well as in CD; source: E. coli BL21(DE3), purified (Ni-NTA, thrombin digestion on the column, anion exchange); not shown: His6, N-terminal, cleaved) [MLL TAD peptide I2849L without His-tag–GB1] | 5.55 |
| GNILPSDIMDFVLKNKPSMQALGESPESY (MLL TAD, residues 2842-2869 of human MLL, with the substitution; Tyr residue attached at the C-terminus for concentration determination by UV absorption; source: E. coli BL21(DE3), purified (Ni-NTA); not shown: His6, N-terminal, kept) [His-tag–GB1–MLL TAD T2857K] | 5.31 |
| GNILPSDIMDFVLKNIPSMQALGESPESY (MLL TAD, residues 2842-2869 of human MLL, with the substitution; Tyr residue attached at the C-terminus for concentration determination by UV absorption; One of the four mutants used without His-tag–GB1 in ITC as well as in CD; source: E. coli BL21(DE3), purified (Ni-NTA, thrombin digestion on the column, anion exchange); not shown: His6, N-terminal, cleaved) [MLL TAD peptide T2857I without His-tag–GB1] | 5.62 |

Incoming: Which pKd is listed for GNILPSDIMDFVLKNWPSMQALGESPESY (MLL TAD, residues 2842-2869 of human MLL, with the substitution; Tyr residue attached at the C-terminus for concentration determination by UV absorption; Used in ITC; also called designed T2857W peptide; T2857W mutant of the MLL TAD peptide; source: E. coli BL21(DE3), purified (Ni-NTA); not shown: His6, N-terminal, kept) [His-tag–GB1–MLL TAD T2857W] ?
Outgoing: 6.02
